- measuredOn: MELK (Homo sapiens)
- protocol: Kinase assay: MELK activity, phosphorylation of FITC-labeled histone H3 peptide measured by IMAP fluorescence polarization
- Assay type: biochemical
- measurementConditions: 50 micro-M ATP, FITC-labeled histone H3 peptide substrate, IMAP fluorescence polarization; read-out: IC50 (μM) (kinase assay)
recordedEndpoint: IC50 (µM)
Numeric answer only, unit µM assumed.

Task: Look up IC50: COc1cc(-c2ccc3ncc(C(=O)C4CC4)c(NC4CCN(C)CC4)c3c2)cc(Cl)c1O
Result: 0.0079

Task: Could you share which IC50 value was measured for COc1cc(-c2ccc3ncc(C(=O)C4CC4)c(N4CCC(CN5CCCC5)CC4)c3c2)cc(F)c1O ?
Result: 0.0041

Task: Which IC50 reading was recorded for the compound COc1cc(-c2ccc3ncc(C(=O)CC(C)C)c(N[C@H]4CC[C@H](N(C)C)CC4)c3c2)cc(Cl)c1O ?
Result: 0.0043

Task: Requested field: IC50. Item: COc1cc(-c2ccc3ncc(C(C)=O)c(N4CCC(CN5CCCC5)CC4)c3c2)cc(Cl)c1O
Result: 0.0027

Task: Requested read-out: IC50. Entry: COc1cc(-c2ccc3ncc(C(=O)C4CC4)c(-c4ccc(N5CCN(C)CC5)cc4)c3c2)cc(Cl)c1O
Result: 0.018

Task: Given the entry CC(C1CCN(c2c(S(C)(=O)=O)cnc3ccc(-c4ccc(O)c(Cl)c4)cc23)CC1)N(C)C (stereo not drawn) , report its measured IC50.
Result: 0.01

* * *

- measuredOn: MELK (Homo sapiens, UniProt Q14680)
- Sequence (Q14680 whole entry, looked up): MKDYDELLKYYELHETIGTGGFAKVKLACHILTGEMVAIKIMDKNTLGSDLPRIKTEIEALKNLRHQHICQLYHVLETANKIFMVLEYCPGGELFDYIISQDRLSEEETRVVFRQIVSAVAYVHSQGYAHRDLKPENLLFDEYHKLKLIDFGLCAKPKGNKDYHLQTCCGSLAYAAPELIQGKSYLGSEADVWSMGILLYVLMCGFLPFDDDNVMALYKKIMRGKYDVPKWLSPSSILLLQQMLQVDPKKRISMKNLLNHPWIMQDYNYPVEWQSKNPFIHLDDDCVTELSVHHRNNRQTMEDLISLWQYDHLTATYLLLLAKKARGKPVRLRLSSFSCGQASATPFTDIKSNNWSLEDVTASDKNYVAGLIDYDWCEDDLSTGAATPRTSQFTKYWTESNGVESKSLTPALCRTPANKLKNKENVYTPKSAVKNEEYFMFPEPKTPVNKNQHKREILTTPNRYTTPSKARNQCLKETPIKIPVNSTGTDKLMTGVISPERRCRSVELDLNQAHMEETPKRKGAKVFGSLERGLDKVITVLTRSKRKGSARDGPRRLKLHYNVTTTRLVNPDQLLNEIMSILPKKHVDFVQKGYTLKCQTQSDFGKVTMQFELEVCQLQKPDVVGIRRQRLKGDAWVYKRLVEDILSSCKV
- protocol: Kinase assay: MELK activity, phosphorylation of FITC-labeled histone H3 peptide measured by IMAP fluorescence polarization
- Assay type: biochemical
- measurementConditions: read-out: IC50 (μM) (kinase assay)
// map IC50 to label using LOW: < 0.004 µM; MEDIUM: ≥ 0.004 µM and < 0.009 µM; HIGH: ≥ 0.009 µM

Task: Which IC50 category applies to N[C@H]1CCCN(c2ccc(Nc3c(C(=O)C4CC4)cnc4ccc(-c5cc(Cl)c(O)c(Cl)c5)cc34)cn2)C1 [Example 646] here?
Result: LOW

Task: Lab log: COc1cc(-c2ccc3ncc(C(=O)C4CC4)c(Nc4ccc(OCCN)nc4)c3c2)cc(Cl)c1O [Example 722] — assign IC50 category
Result: MEDIUM

Task: Hello team, could you let me know which band the following compound falls into: O=C(c1cnc2ccc(-c3cc(Cl)c(O)c(Cl)c3)cc2c1Nc1cccc(CCN2CCCC2)c1)C1CC1 [Example 797]
Result: MEDIUM

Task: For CC(C)C(=O)c1cnc2ccc(-c3cc(F)c(O)c(Cl)c3)cc2c1N[C@H]1CC[C@H](CN(C)C)CC1 [Example 620] , which IC50 bin applies?
Result: MEDIUM

Task: # bin lookup: classify O=C(c1cnc2ccc(-c3cc(F)c(O)c(Cl)c3)cc2c1N[C@H]1CC[C@H](CN2CC[C@@H](F)C2)CC1)C1CC1 [Example 570] by its IC50
Result: HIGH

Task: Hi there! Could you help me figure out the category for CC(C)C(=O)c1cnc2ccc(-c3cc(F)c(O)c(Cl)c3)cc2c1Nc1ccc(N2CCNCC2)nc1 [Example 674] please?
Result: MEDIUM

* * *

- measuredOn: MELK (Homo sapiens)
- protocol: Kinase assay: MELK activity, phosphorylation of FITC-labeled histone H3 peptide measured by IMAP fluorescence polarization
- Assay type: biochemical
- measurementConditions: read-out: IC50 (μM) (kinase assay)
So I've got a bunch of compounds here, and I need their IC50 values.
Use µM as the unit, but write only the number.

Task: Look up IC50: CN1CCN(Cc2ccc(Nc3c(C(=O)C4CC4)cnc4ccc(-c5cc(F)c(O)c(Cl)c5)cc34)cn2)CC1 [Example 684]
Result: 0.05

Task: Look up IC50 for this compound: CC(=O)c1cnc2ccc(-c3cc(Cl)c(O)c(Cl)c3)cc2c1Nc1ccc(N2CCNCC2)nc1 [Example 702]
Result: 0.0014

Task: What value of IC50 has been recorded for this entry: O=C(c1cnc2ccc(-c3cc(Cl)c(O)c(Cl)c3)cc2c1Nc1ccc(NC2CCNC2)nc1)C1CC1 (stereo not drawn) [Example 666]
Result: 0.024

* * *

- measuredOn: MELK (Homo sapiens, UniProt Q14680)
- protocol: Kinase assay: MELK activity, phosphorylation of FITC-labeled histone H3 peptide measured by IMAP fluorescence polarization
- Type: biochemical
- measurementConditions: read-out: IC50 (μM) (kinase assay)
Structures can show the parent of a compound that is named as a salt.
Rule for this label: 1.0 means IC50 is less than 0.008 µM; 0.0 means IC50 is at least 0.008 µM.

Task: Answer whether the molecule COc1cc(-c2ccc3ncc(C(C)=O)c(N[C@H]4CC[C@H](CN5CCC[C@H]5CO)CC4)c3c2)cc(Cl)c1O has IC50 strictly less than 0.008 µM
Result: 1.0

Task: Determine whether this molecule shows IC50 lower than 0.008 µM (ties excluded): COc1cc(-c2ccc3ncc(C(C)=O)c(Nc4ccc(C(N)=O)cc4)c3c2)cc(Cl)c1O
Result: 0.0

Task: I'd appreciate it if you could check whether CCC(=O)c1cnc2ccc(-c3cc(Cl)c(O)c(Cl)c3)cc2c1N[C@H]1CC[C@H](N(C)C)CC1 has IC50 smaller than 0.008 µM.
Result: 0.0

Task: # TODO verify IC50 < 0.008 µM strictly for this molecule: CC(=O)c1cnc2ccc(-c3cc(F)c(O)c(Cl)c3)cc2c1N[C@H]1CC[C@H](CN2CCCC2)CC1
Result: 1.0

Task: Given the entry CN(C)C1CCN(C[C@H]2CC[C@H](Nc3c(C(=O)C4CC4)cnc4ccc(-c5cc(F)c(O)c(Cl)c5)cc34)CC2)C1 (stereo partly shown) , would its reported IC50 be below 0.008 µM?
Result: 1.0

Task: Hi there! Is IC50 for CC(=O)c1cnc2ccc(-c3cc(Cl)c(O)c(Cl)c3)cc2c1N[C@@H]1CC[C@@H](CN2CCN(C)CC2)C1 below 0.008 µM, do you know?
Result: 1.0

Task: Determine if CCC(=O)c1cnc2ccc(-c3cc(F)c(O)c(Cl)c3)cc2c1Nc1ccc(CN(C)C)cc1 shows IC50 strictly lower than 0.008 µM.
Result: 0.0

Task: Lab log: compare recorded IC50 with 0.008 µM; is it strictly lower for CC(=O)c1cnc2ccc(-c3cc(F)c(O)c(Cl)c3)cc2c1Nc1ccc(CCN(C)C)cc1 ?
Result: 0.0

Task: IC50 under 0.008 µM? Item: CNC1CCN(c2ccc(Nc3c(C(=O)C4CC4)cnc4ccc(-c5cc(Cl)c(O)c(Cl)c5)cc34)cn2)C1 (stereo not shown) [Example 804, trihydrochloride]
Result: 1.0

Task: Here's an entry: CN(C)CCOc1ccc(Nc2c(C(=O)C3CC3)cnc3ccc(-c4cc(Cl)c(O)c(Cl)c4)cc23)cn1 . Is its IC50 below 0.008 µM?
Result: 1.0

Task: Does this molecule meet the criterion IC50 < 0.008 µM? COc1cc(-c2ccc3ncc(C(=O)C4CC4)c(Nc4ccc(N5CCC(N)C5)nc4)c3c2)cc(Cl)c1O (stereo not shown)
Result: 1.0

Task: Here's an entry: COc1cc(-c2cc3c(Nc4ccc(N5CCNCC5)nc4)c(C(=O)C4CC4)cnc3cc2F)cc(Cl)c1O . Is its IC50 below 0.008 µM?
Result: 0.0

Task: Could you please tell me whether IC50 recorded for CC(=O)c1cnc2ccc(-c3cc(F)c(O)c(Cl)c3)cc2c1Nc1ccc(N2CCCC(N)C2)nc1 (stereo not shown) [Example 732] is less than 0.008 µM?
Result: 1.0

Task: Please state whether IC50 is below 0.008 µM for O=C(c1cnc2ccc(-c3cc(Cl)c(O)c(Cl)c3)cc2c1N[C@H]1CC[C@H](CN2CCCC2)CC1)C1CC1
Result: 1.0

Task: Strictly below 0.008 µM in IC50? Nc1ccc(Nc2c(C(=O)C3CC3)cnc3ccc(-c4cc(F)c(O)c(Cl)c4)cc23)cn1
Result: 0.0

* * *

- Tested on: T47D cells
- protocol: Cell-based assay: anti-proliferative activity, Cell Counting Kit-8, 72 hours (T47D)
- measurementConditions: Homo sapiens, T47D, 72 h
Where a name gives a salt, the structure may show the parent alone.
Please go through the items and note down their log10 IC50.
Recorded IC50 (log10, µM)

Task: Quick one: log10 IC50 of CC(=O)c1cnc2ccc(-c3cc(Cl)c(O)c(Cl)c3)cc2c1Nc1ccc(NCCN(C)C)nc1 [Example 758] ?
Result: -0.82

Task: Look up log10 IC50: CN(C)CCOc1ccc(Nc2c(C(=O)C3CC3)cnc3ccc(-c4cc(F)c(O)c(Cl)c4)cc23)cn1 [Example 710]
Result: -0.82

Task: Given CC(=O)c1cnc2ccc(-c3cc(F)c(O)c(Cl)c3)cc2c1Nc1cncc(CCN2CCCC2)c1 [Example 880, hydrochloride] , state its recorded log10 IC50.
Result: 0.49

Task: Fill in the blank: the reported log10 IC50 of O=C(c1cnc2ccc(-c3cc(Cl)c(O)c(Cl)c3)cc2c1Nc1ccc(NCCO)nc1)C1CC1 [Example 678] is ____.
Result: -0.39

Task: Return reported log10 IC50; argument: NC1CCCN(c2ccc(Nc3c(C(=O)C4CC4)cnc4ccc(-c5cc(F)c(O)c(Cl)c5)cc34)cn2)C1 (stereo not drawn) [Example 561]
Result: -2.26

Task: I'd like to know its log10 IC50. The molecule in question is CC(=O)c1cnc2ccc(-c3cc(Cl)c(O)c(Cl)c3)cc2c1Nc1cnn(C2CCN(C)C2)c1 (stereo not drawn) [Example 814, dihydrochloride]
Result: -0.85

Task: GET /values?readout=log10 IC50&item= NC[C@H]1CC[C@H](Nc2c(C(=O)C3CC3)cnc3ccc(-c4cc(Cl)c(O)c(Cl)c4)cc23)CC1 [Example 495]
Result: -1.35

Task: # lookup: log10 IC50 of CC(=O)c1c(C)nc2ccc(-c3cc(Cl)c(O)c(Cl)c3)cc2c1Nc1ccc(N2CCN(C)CC2)nc1 [Example 838, hydrochloride]
Result: 1.23

Task: Give the measured log10 IC50 of CC(=O)c1cnc2ccc(-c3cc(Cl)c(O)c(Cl)c3)cc2c1Nc1ccc2c(c1)CCC2N(C)C (stereo not drawn) [Example 720] .
Result: -1.23

Task: Fill in the blank: the reported log10 IC50 of CC(=O)c1cnc2ccc(-c3cc(F)c(O)c(Cl)c3)cc2c1Nc1ccc(NCCN(C)C)nc1 [Example 762] is ____.
Result: -0.92

Task: Give its log10 IC50 value. Item: CN(C)CCN1CCC(Nc2c(C(=O)C3CC3)cnc3ccc(-c4cc(F)c(O)c(Cl)c4)cc23)CC1 [Example 822]
Result: -0.54

Task: What does the record list as log10 IC50 for O=C(c1cnc2ccc(-c3cc(F)c(O)c(Cl)c3)cc2c1Nc1ccc(N2CCNCC2)nc1)C1CC1 [Example 425] ?
Result: -1.38

Task: Give its log10 IC50 value. Item: CN1CCN(c2ncc(-c3c(C(=O)C4CC4)cnc4ccc(-c5cc(Cl)c(O)c(Cl)c5)cc34)cn2)CC1 [Example 479]
Result: -0.04

Task: Quick one: log10 IC50 for CN(C)CCOc1ccc(Nc2c(S(C)(=O)=O)cnc3ccc(-c4cc(F)c(O)c(Cl)c4)cc23)cn1 [Example 885, hydrochloride] ?
Result: -0.15

Task: Give its log10 IC50 value. Item: CN(C)Cc1ccc(Nc2c(C(=O)C3CC3)cnc3ccc(-c4cnc(C#N)nc4)cc23)nc1 [Example 439]
Result: -0.21

Task: Recorded log10 IC50 of COc1cc(-c2ccc3ncc(C(=O)C4CC4)c(Nc4ccc(CN5CCC(N(C)C)C5)cc4)c3c2)cc(Cl)c1O (stereo not drawn) [Example 697] , please.
Result: -0.09

Task: Quick one: log10 IC50 of COc1cc(-c2cc3c(Nc4ccc(CN(C)C)cc4)c(C(=O)C4CC4)cnc3cc2F)cc(Cl)c1O [Example 540] ?
Result: -0.05

Task: Reported log10 IC50, molecule CC(=O)c1cnc2ccc(-c3ccc4nc[nH]c4c3)cc2c1N[C@H]1CC[C@H](CN(C)C)CC1 [Example 911, hydrochloride] : ____
Result: 1.00

FYI, the data here is from patent US9120749B2.
